molecular target: UniProt P09619; assay: PDGF-R ELISA; type: cell-based
Sequence (P09619 33-1106, species assumed): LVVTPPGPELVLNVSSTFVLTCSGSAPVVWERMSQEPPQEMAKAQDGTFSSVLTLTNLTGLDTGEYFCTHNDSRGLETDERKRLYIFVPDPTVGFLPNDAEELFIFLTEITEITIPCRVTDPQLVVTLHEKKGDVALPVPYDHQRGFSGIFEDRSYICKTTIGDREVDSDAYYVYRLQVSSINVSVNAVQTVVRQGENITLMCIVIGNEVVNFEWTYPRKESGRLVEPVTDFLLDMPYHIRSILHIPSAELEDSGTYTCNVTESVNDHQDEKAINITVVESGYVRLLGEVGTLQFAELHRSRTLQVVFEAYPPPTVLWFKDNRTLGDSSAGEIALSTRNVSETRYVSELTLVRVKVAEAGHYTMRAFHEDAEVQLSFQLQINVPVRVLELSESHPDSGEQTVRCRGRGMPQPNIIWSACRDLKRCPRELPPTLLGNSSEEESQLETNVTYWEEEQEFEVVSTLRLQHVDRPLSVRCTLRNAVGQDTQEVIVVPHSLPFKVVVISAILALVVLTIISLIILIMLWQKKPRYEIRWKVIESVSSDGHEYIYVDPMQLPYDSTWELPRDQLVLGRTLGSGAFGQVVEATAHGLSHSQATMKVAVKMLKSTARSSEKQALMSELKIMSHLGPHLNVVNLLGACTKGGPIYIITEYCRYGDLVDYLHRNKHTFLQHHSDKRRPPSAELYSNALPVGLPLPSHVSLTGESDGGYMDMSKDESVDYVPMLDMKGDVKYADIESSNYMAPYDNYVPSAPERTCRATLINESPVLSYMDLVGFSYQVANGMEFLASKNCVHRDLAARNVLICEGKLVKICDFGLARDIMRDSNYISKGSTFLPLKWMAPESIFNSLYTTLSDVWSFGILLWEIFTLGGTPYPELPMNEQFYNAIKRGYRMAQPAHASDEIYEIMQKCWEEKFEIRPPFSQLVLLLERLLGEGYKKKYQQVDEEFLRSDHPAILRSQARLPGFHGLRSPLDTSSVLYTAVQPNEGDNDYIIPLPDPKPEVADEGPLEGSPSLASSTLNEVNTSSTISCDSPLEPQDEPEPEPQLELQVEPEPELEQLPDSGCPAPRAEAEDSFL
property label: PDGF Kinase %Inhibition

Query :: Returns the measured PDGF Kinase %Inhibition for the input molecule. Input: CNS(=O)(=O)c1ccc2c(c1)C(=Cc1ccc(N(C)C)c3ccccc13)C(=O)N2 [10724/D02]
Result :: -9.6%

Query :: Next molecule up: COc1cc(C=C2C(=O)Nc3ccc(I)cc32)cc(OC)c1OC [10730/B04]
Result :: 7.2%

Query :: Next molecule up: COc1ccc(C=C2C(=O)Nc3ccc(S(=O)(=O)Nc4ccc(C(F)(F)F)cc4)cc32)cc1 [10726/E11]
Result :: 30.3%

Query :: Next molecule up: CCc1ccc(C=C2C(=O)Nc3ccc(S(=O)(=O)N4CCOCC4)cc32)s1 [10726/F10]
Result :: 9.4%

Query :: Next molecule up: COc1cccc(OC)c1C=C1C(=O)Nc2ccc(CCCl)cc21 [10728/G03]
Result :: -8.4%

Query :: Next molecule up: CNS(=O)(=O)c1ccc2c(c1)C(=Cc1ccc(O)c(OC)c1[N+](=O)[O-])C(=O)N2 [10733/D11]
Result :: -4.0%

Query :: Next molecule up: Cc1c(Br)ccc2c1C(=CC(c1cccs1)C(F)(F)F)C(=O)N2 (centres unmarked) [10732/C02]
Result :: 7.3%

Query :: Next molecule up: O=C1Nc2c(Br)cc(Br)cc2C1=Cc1cc(Br)cc(Br)c1O [10734/A07]
Result :: 21.9%

Query :: Next molecule up: CNS(=O)(=O)c1ccc2c(c1)C(=Cc1coc3ccc([N+](=O)[O-])cc3c1=O)C(=O)N2 [10731/D07]
Result :: 2.7%

Query :: Next molecule up: O=C1Nc2ccc(S(=O)(=O)N3CCOCC3)cc2C1=Cc1cc(Cl)cc(Cl)c1O [10734/F03]
Result :: -24.1%

Query :: Next molecule up: O=C1Nc2ccc(CCCl)cc2C1=Cc1ccc(C(=O)O)cc1 [10722/G05]
Result :: -6.0%

Query :: Next molecule up: COc1cccc(C=C2C(=O)Nc3ccc(S(=O)(=O)Nc4ccc(C(F)(F)F)cc4)cc32)c1OC [10727/E11]
Result :: 7.9%

Query :: Next molecule up: O=C1Nc2ccc(CCCl)cc2C1=Cc1ccncc1 [10729/G09]
Result :: 1.9%

Query :: Next molecule up: COc1cc(C=C2C(=O)Nc3ccc(I)cc32)cc(OC)c1 [10728/B04]
Result :: 9.8%

Query :: Next molecule up: O=C1Nc2c(Br)cc(Br)cc2C1=Cc1cc(O)ccc1O [10727/A10]
Result :: 18.1%

Query :: Next molecule up: O=C1Nc2ccc(S(=O)(=O)Nc3ccc(C(F)(F)F)cc3)cc2C1=Cc1c(O)cc(O)cc1O [10722/E03]
Result :: -7.2%

Query :: Next molecule up: O=C1Nc2ccc(S(=O)(=O)Nc3ccc(C(F)(F)F)cc3)cc2C1=Cc1cccn1-c1ccc(Cl)cc1 [10724/E09]
Result :: 21.0%

Query :: Next molecule up: CNS(=O)(=O)c1ccc2c(c1)C(=Cc1cc(OC)c(OC)c(OC)c1)C(=O)N2 [10730/D04]
Result :: 20.8%

Query :: Next molecule up: COc1cc(C=C2C(=O)Nc3ccc(Br)c(C)c32)cc2c1OCO2 [10728/C11]
Result :: 8.5%

Query :: Next molecule up: CNS(=O)(=O)c1ccc2c(c1)C(=Cc1ccc([N+](=O)[O-])s1)C(=O)N2 [10722/D04]
Result :: 15.7%

Query :: Next molecule up: COc1cc(OC)c(OC)cc1C=C1C(=O)Nc2c(Br)cc(Br)cc21 [10730/A03]
Result :: -11.2%

Query :: Next molecule up: O=C1Nc2ccc(CCCl)cc2C1=Cc1ccc(O)c(Br)c1 [10734/G09]
Result :: -7.7%

Query :: Next molecule up: Cc1c(Br)ccc2c1C(=Cc1c(F)cccc1C(F)(F)F)C(=O)N2 [10728/C09]
Result :: 8.1%

Query :: Next molecule up: COc1c(O)ccc(C=C2C(=O)Nc3ccc(S(=O)(=O)Nc4ccc(C(F)(F)F)cc4)cc32)c1[N+](=O)[O-] [10733/E11]
Result :: 15.9%

Query :: Next molecule up: O=C1Nc2ccc(CCCl)cc2C1=Cc1c[nH]cn1 [10725/G11]
Result :: 22.2%

Query :: Next molecule up: COc1c(I)cc(C=C2C(=O)Nc3ccc(S(=O)(=O)Nc4ccc(C(F)(F)F)cc4)cc32)cc1C(C)(C)C [10732/E11]
Result :: 47.7%

Query :: Next molecule up: O=C1Nc2ccc(I)cc2C1=Cc1ccc(O)c(Br)c1 [10734/B09]
Result :: 12.6%

Query :: Next molecule up: COc1cccc(C=C2C(=O)Nc3ccc(Br)c(C)c32)c1O [10723/C03]
Result :: 42.9%

Query :: Next molecule up: N#Cc1ccc(C=C2C(=O)Nc3ccc(S(=O)(=O)Nc4ccc(C(F)(F)F)cc4)cc32)cc1 [10727/E09]
Result :: 15.9%

Query :: Next molecule up: Cc1c(Br)ccc2c1C(=Cc1cccc(C#N)c1)C(=O)N2 [10727/C08]
Result :: 23.2%

Query :: Next molecule up: COc1ccc(C=C2C(=O)Nc3ccc(CCCl)cc32)cc1C(C)(C)C [10732/G05]
Result :: 15.4%

Query :: Next molecule up: COc1cc(C=C2C(=O)Nc3ccc(Br)c(C)c32)cc(OC)c1 [10728/C04]
Result :: 27.2%

Query :: Next molecule up: O=C1Nc2ccc(CCCl)cc2C1=Cc1cc(Cl)cc(Br)c1O [10727/G04]
Result :: -27.0%

Query :: Next molecule up: CNS(=O)(=O)c1ccc2c(c1)C(=Cc1ccncc1)C(=O)N2 [10729/D09]
Result :: -12.1%

Query :: Next molecule up: CNS(=O)(=O)c1ccc2c(c1)C(=Cc1csc([N+](=O)[O-])c1)C(=O)N2 [10722/D09]
Result :: 30.6%

---

target: EGFR (Homo sapiens); construct: Add 7 ug A431 cell lysate per well (EGFR source); endogenous in cells; host or cells: A431; experiment: EGFR ELISA assay (in vitro kinase activity, EGFR captured from A431 cell lysate); format: biochemical; parameters: concentration or dose not given beside the values
Sequence (P00533 25-1210): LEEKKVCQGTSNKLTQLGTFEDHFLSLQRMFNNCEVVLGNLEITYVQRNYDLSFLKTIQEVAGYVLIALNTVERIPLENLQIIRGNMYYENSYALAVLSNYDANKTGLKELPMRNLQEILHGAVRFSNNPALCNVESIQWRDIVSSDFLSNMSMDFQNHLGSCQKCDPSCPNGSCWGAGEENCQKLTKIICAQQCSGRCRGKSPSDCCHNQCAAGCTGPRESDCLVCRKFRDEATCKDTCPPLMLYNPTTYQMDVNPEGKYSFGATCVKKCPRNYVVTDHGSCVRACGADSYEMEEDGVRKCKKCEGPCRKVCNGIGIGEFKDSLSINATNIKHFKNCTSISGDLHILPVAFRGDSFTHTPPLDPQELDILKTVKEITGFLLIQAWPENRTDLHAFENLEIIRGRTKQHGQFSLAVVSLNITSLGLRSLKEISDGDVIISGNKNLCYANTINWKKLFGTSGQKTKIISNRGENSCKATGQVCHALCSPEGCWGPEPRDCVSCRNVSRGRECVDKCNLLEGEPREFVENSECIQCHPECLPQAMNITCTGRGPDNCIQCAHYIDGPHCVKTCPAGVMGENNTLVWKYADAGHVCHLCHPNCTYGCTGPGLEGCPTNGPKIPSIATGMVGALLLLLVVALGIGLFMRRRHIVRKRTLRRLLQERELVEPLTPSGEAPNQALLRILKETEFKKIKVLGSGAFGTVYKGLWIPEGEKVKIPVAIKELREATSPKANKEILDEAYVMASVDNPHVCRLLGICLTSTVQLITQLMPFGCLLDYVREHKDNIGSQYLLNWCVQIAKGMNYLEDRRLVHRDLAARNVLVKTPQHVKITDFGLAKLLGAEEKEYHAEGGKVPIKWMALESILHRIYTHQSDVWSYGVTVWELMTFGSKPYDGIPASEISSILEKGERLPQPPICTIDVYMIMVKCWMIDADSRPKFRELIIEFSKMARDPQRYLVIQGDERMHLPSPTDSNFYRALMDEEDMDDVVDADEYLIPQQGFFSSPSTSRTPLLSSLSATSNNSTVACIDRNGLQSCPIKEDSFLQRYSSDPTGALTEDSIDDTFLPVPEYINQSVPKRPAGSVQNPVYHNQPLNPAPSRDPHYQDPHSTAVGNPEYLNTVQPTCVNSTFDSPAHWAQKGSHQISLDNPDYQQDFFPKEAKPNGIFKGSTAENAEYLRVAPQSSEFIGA
Record form. Attribute: Biochem EGFR %Inhibition. Fill in for each entry.
Value expressed in %; do not type the unit.

Query :: Returns the measured Biochem EGFR %Inhibition for the input molecule. Input: COc1cc(O)ccc1C=C1C(=O)Nc2ccc(S(=O)(=O)Nc3ccc(C(F)(F)F)cc3)cc21 [10720/E03]
Result :: 54.4

Query :: Next molecule up: O=C1Nc2ccc(I)cc2C1=Cc1cccs1 [10717/B03]
Result :: 7.3

Query :: Next molecule up: O=C1Nc2ccc(CCCl)cc2C1=Cc1ccc(O)cc1 [10719/G07]
Result :: -8.1

Query :: Next molecule up: CCN(CC)c1ccc(C=C2C(=O)Nc3ccc(CCCl)cc32)cc1 [10727/G02]
Result :: 37.5

Query :: Next molecule up: Cn1c(C=C2C(=O)Nc3ccc(S(=O)(=O)N4CCOCC4)cc32)nc2ccccc21 [10721/F02]
Result :: 11.0

---

target: FLK-1 receptor (Mus musculus); construct: expressed in transfected cells; host or cells: NIH3T3 C7#3; test: FLK-1 ELISA (kinase activity of the FLK-1 receptor in FLK-1/NIH3T3 cells, VEGF stimulated); type: cell-based
Sequence (P35918 20-1345): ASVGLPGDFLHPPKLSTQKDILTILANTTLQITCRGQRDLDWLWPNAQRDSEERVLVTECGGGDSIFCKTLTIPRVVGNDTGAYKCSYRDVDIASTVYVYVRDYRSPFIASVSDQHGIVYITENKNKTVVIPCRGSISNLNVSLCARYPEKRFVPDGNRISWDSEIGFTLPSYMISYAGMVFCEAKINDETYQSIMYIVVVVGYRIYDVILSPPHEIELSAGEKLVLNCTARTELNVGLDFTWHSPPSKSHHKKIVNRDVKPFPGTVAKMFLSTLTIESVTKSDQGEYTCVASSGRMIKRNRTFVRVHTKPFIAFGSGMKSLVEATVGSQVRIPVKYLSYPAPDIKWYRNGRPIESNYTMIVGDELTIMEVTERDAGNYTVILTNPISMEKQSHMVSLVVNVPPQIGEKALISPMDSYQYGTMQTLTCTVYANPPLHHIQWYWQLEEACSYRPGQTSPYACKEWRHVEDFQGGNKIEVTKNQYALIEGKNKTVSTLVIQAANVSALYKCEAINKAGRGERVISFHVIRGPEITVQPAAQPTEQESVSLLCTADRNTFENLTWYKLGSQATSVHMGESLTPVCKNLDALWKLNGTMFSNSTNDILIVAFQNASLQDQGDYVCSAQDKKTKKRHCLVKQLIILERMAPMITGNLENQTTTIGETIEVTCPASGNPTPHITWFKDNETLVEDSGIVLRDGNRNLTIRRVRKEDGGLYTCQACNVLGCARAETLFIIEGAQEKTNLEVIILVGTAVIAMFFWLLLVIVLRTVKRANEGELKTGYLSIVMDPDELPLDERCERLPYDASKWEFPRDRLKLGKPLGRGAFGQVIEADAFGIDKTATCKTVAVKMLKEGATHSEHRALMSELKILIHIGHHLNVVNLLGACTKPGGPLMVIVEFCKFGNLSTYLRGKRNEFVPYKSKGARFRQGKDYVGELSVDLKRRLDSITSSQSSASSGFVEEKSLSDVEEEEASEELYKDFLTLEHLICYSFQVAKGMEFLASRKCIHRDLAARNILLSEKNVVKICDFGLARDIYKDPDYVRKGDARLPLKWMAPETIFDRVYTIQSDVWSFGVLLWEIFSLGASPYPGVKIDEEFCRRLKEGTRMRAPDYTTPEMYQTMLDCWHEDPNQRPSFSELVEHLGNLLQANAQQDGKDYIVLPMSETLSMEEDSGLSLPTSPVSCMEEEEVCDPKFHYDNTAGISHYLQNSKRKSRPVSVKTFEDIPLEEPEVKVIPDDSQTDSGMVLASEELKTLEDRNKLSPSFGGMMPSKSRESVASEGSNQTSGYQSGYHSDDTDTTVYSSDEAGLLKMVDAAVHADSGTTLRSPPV
property label: Fik Kinase %Inhibition (%)
Value expressed in %; do not type the unit.

Query :: Returns the measured Fik Kinase %Inhibition for the input molecule. Input: `Cc1cc(C=C2C(=O)Nc3ccc(CCCl)cc32)sc1C`
Result :: 3.2

Query :: Next molecule up: `O=C1Nc2ccc(S(=O)(=O)Nc3ccc(C(F)(F)F)cc3)cc2C1=Cc1ccccn1`
Result :: 4.1

Query :: Next molecule up: `COc1c(O)ccc(C=C2C(=O)Nc3ccc(CCCl)cc32)c1[N+](=O)[O-]`
Result :: 3.3

Query :: Next molecule up: `O=C1Nc2ccc(CCCl)cc2C1=Cc1cc(Br)ccc1O`
Result :: 77.8

Query :: Next molecule up: `Cc1ccc2occ(C=C3C(=O)Nc4ccc(S(=O)(=O)N5CCOCC5)cc43)c(=O)c2c1`
Result :: 2.2

Query :: Next molecule up: `COc1c([N+](=O)[O-])cc(C=C2C(=O)Nc3ccc(S(=O)(=O)N4CCOCC4)cc32)cc1C(C)(C)C`
Result :: 17.5

Query :: Next molecule up: `O=C1Nc2ccc(S(=O)(=O)Nc3ccc(C(F)(F)F)cc3)cc2C1=Cc1c[nH]c(=O)[nH]c1=O`
Result :: 10.5

Query :: Next molecule up: `O=C1Nc2ccc(S(=O)(=O)Nc3ccc(C(F)(F)F)cc3)cc2C1=Cc1ccc(F)cc1`
Result :: 13.2

Query :: Next molecule up: `CNS(=O)(=O)c1ccc2c(c1)C(=Cc1ccc(SC)s1)C(=O)N2`
Result :: 11.8

Query :: Next molecule up: `Cc1ccc(C=C2C(=O)Nc3ccc(I)cc32)s1`
Result :: -18.3

Query :: Next molecule up: `CC(C)c1ccc2occ(C=C3C(=O)Nc4c(Br)cc(Br)cc43)c(=O)c2c1`
Result :: -6.5

Query :: Next molecule up: `COc1ccc(Br)c(C=C2C(=O)Nc3ccc(S(=O)(=O)Nc4ccc(C(F)(F)F)cc4)cc32)c1O`
Result :: -0.8

Query :: Next molecule up: `CCc1ccc(C=C2C(=O)Nc3ccc(Br)c(C)c32)o1`
Result :: -2.3

Query :: Next molecule up: `O=C1Nc2ccc(S(=O)(=O)Nc3ccc(C(F)(F)F)cc3)cc2C1=Cc1cccnc1`
Result :: 10.9

Query :: Next molecule up: `COC(=O)Cc1c(Cl)[nH]c(C=C2C(=O)Nc3ccc(S(=O)(=O)Nc4ccc(C(F)(F)F)cc4)cc32)c1C(=O)OC`
Result :: 7.0

Query :: Next molecule up: `CCOc1ccccc1C=C1C(=O)Nc2ccc(CCCl)cc21`
Result :: 14.9

Query :: Next molecule up: `O=CN1CCN(c2ccc(C=C3C(=O)Nc4ccc(S(=O)(=O)N5CCOCC5)cc43)cc2)CC1`
Result :: 6.9
